runDescription: Tissue concentrations of capecitabine and its metabolites 2 h after oral capecitabine in CES2-modified mice
Assay type: in vivo, mouse
recordedConditions: female, mouse, small intestine contents, oral, 500 mg/kg, female Ces2^–/– mice, oral capecitabine 500 mg/kg, read-out: CSIC (small intestine contents concentration)

{"molecule": "CCCCCOC(=O)Nc1nc(=O)n([C@@H]2O[C@H](C)[C@@H](O)[C@H]2O)cc1F [Capecitabine, reference compound]", "concentration at 2 h": "97200 ng/g"}
{"molecule": "C[C@H]1O[C@@H](n2cc(F)c(N)nc2=O)[C@H](O)[C@@H]1O", "concentration at 2 h": "10800 ng/g"}
{"molecule": "O=c1[nH]cc(F)c(=O)[nH]1 [5-FU, 5-fluorouracil, reference compound]", "concentration at 2 h": "200 ng/g"}

* * *

runDescription: Tissue concentrations of capecitabine and its metabolites 2 h after oral capecitabine in CES2-modified mice
Type: in vivo, mouse
recordedConditions: female, Ces2^-/-V, mouse, small intestine, oral, 500 mg/kg, female Ces2^–/–V mice, oral capecitabine 500 mg/kg, read-out: CSI (small intestine tissue concentration)
Experimental: For capecitabine 2-h experiments, 6–7 female mice received oral capecitabine (500 mg/kg, 10 μL/g), and tail vein blood samples were collected at 0.125, 0.25, 0.5 and 1 h after drug administration. […] Concentrations of capecitabine (and its metabolites) and vinorelbine (and its metabolite) in mouse plasma samples and organ homogenates were determined using two independent validated high-performance liquid chromatography-tandem mass spectrometry assays. […]

{"compound": "O=c1[nH]cc(F)c(=O)[nH]1 [5-FU, 5-fluorouracil, reference compound]", "concentration at 2 h, ng/g": 4120}
{"compound": "C[C@H]1O[C@@H](n2cc(F)c(N)nc2=O)[C@H](O)[C@@H]1O", "concentration at 2 h, ng/g": 3600}
{"compound": "CCCCCOC(=O)Nc1nc(=O)n([C@@H]2O[C@H](C)[C@@H](O)[C@H]2O)cc1F [Capecitabine, reference compound]", "concentration at 2 h, ng/g": 2410}

* * *

runDescription: Plasma pharmacokinetics of vinorelbine and deacetylvinorelbine after oral vinorelbine in CES2-modified mice
Format: in vivo, mouse
recordedConditions: mouse; male Ces2^–/–A mice; oral vinorelbine 10 mg/kg; plasma; read-out: Cmax

{"molecule": "CCC1=C[C@@H]2CN(C1)Cc1c([nH]c3ccccc13)[C@@](C(=O)OC)(c1cc3c(cc1OC)N(C)[C@H]1[C@@](O)(C(=O)OC)[C@H](OC(C)=O)[C@]4(CC)C=CCN5CC[C@]31[C@@H]54)C2 [Vinorelbine, reference compound]", "Cmax": "333 ng/mL"}

* * *

runDescription: Plasma pharmacokinetics of capecitabine and its metabolites after oral capecitabine in CES2-modified mice
Type: in vivo, mouse
recordedConditions: female, mouse, plasma, po, 500 mg/kg, female Ces2^–/–A mice; oral capecitabine 500 mg/kg; plasma; read-out: AUC0-2h

{"compound": "CCCCCOC(=O)Nc1nc(=O)n([C@@H]2O[C@H](C)[C@@H](O)[C@H]2O)cc1F [Capecitabine, reference compound]", "unitsLabel": "ng·h/mL", "AUC(0-t)": 31500}
{"compound": "C[C@H]1O[C@@H](n2cc(F)c(N)nc2=O)[C@H](O)[C@@H]1O [5’-DFCR, 5’-deoxy-5-fluorocytidine]", "unitsLabel": "ng·h/mL", "AUC(0-t)": 165000}
{"compound": "O=c1[nH]cc(F)c(=O)[nH]1 [5-FU, 5-fluorouracil, reference compound]", "unitsLabel": "ng·h/mL", "AUC(0-t)": 218}

* * *

runDescription: Tissue concentrations of vinorelbine and deacetylvinorelbine 4 h after i.v. vinorelbine in CES2-modified mice
Assay type: in vivo, mouse
recordedConditions: male, mouse, liver, intravenous, 10 mg/kg, male wild-type mice, i.v. vinorelbine 10 mg/kg, read-out: Cliver (liver concentration)
experimentalEndpoint: concentration at 4 h (ng/g)

{"compound": "CCC1=C[C@@H]2CN(C1)Cc1c([nH]c3ccccc13)[C@@](C(=O)OC)(c1cc3c(cc1OC)N(C)[C@H]1[C@@](O)(C(=O)OC)[C@H](OC(C)=O)[C@]4(CC)C=CCN5CC[C@]31[C@@H]54)C2 [Vinorelbine, reference compound]", "unitsLabel": "ng/g", "assayValue": 12200}

* * *

runDescription: Tissue concentrations of capecitabine and its metabolites 2 h after oral capecitabine in CES2-modified mice
Assay type: in vivo, mouse
recordedConditions: female, Ces2^–/– (Ces2 cluster knockout), mouse, small intestine, oral, 500 mg/kg, female Ces2^–/– mice, oral capecitabine 500 mg/kg, read-out: CSI (small intestine tissue concentration)
experimentalEndpoint: concentration at 2 h (ng/g)

{"compound": "CCCCCOC(=O)Nc1nc(=O)n([C@@H]2O[C@H](C)[C@@H](O)[C@H]2O)cc1F [Capecitabine, reference compound]", "assayValue": 17200}

* * *

This section presents compounds with their documented Small intestine concentration ratio (metabolite/capecitabine) values.
runDescription: Tissue concentrations of capecitabine and its metabolites 2 h after oral capecitabine in CES2-modified mice
Type: in vivo, mouse
recordedConditions: female Ces2^–/–V mice, oral capecitabine 500 mg/kg
experimentalEndpoint: Small intestine concentration ratio (metabolite/capecitabine)

{"compound": "C[C@H]1O[C@@H](n2cc(F)c(=O)[nH]c2=O)[C@H](O)[C@@H]1O [5’-DFUR]", "assayValue": "1.50 ± 0.56^###^^^"}
{"compound": "NCC(F)C(=O)O (stereo not shown) [FBAL]", "assayValue": "1.5 ± 2.0^###^^^"}
{"compound": "O=c1[nH]cc(F)c(=O)[nH]1 [5-FU, 5-fluorouracil, reference compound]", "assayValue": "2.0 ± 0.9^###^^^"}
{"compound": "C[C@H]1O[C@@H](n2cc(F)c(N)nc2=O)[C@H](O)[C@@H]1O [5’-DFCR, 5’-deoxy-5-fluorocytidine]", "assayValue": "1.80 ± 0.88^###^^^"}

* * *

runDescription: Tissue concentrations of capecitabine and its metabolites 2 h after oral capecitabine in CES2-modified mice
Format: in vivo, mouse
recordedConditions: female wild-type mice, oral capecitabine 500 mg/kg
experimentalEndpoint: Colon concentration ratio (metabolite/capecitabine)

{"compound": "C[C@H]1O[C@@H](n2cc(F)c(N)nc2=O)[C@H](O)[C@@H]1O", "assayValue": 6.9}
{"compound": "NCC(F)C(=O)O (stereo not shown)", "assayValue": 0.62}
{"compound": "O=c1[nH]cc(F)c(=O)[nH]1 [5-FU, 5-fluorouracil, reference compound]", "assayValue": 0.53}
{"compound": "C[C@H]1O[C@@H](n2cc(F)c(=O)[nH]c2=O)[C@H](O)[C@@H]1O", "assayValue": 1.2}

* * *

runDescription: Plasma pharmacokinetics of vinorelbine and deacetylvinorelbine after i.v. vinorelbine in CES2-modified mice
recordedConditions: male, mouse, plasma, iv, 10 mg/kg, AUC0-4h, male wild-type mice; i.v. vinorelbine 10 mg/kg

{"molecule": "CCC1=C[C@@H]2CN(C1)Cc1c([nH]c3ccccc13)[C@@](C(=O)OC)(c1cc3c(cc1OC)N(C)[C@H]1[C@@](O)(C(=O)OC)[C@H](OC(C)=O)[C@]4(CC)C=CCN5CC[C@]31[C@@H]54)C2 [Vinorelbine, reference compound]", "unitsLabel": "ng·h/mL", "AUC(0-t)": 8140}

* * *

runDescription: Tissue concentrations of capecitabine and its metabolites 2 h after oral capecitabine in CES2-modified mice
Type: in vivo, mouse
recordedConditions: female, mouse, small intestine contents, oral, 500 mg/kg, female Ces2^–/–A mice, oral capecitabine 500 mg/kg, read-out: CSIC (small intestine contents concentration)
This section presents molecules with their documented concentration at 2 h values.
experimentalEndpoint: concentration at 2 h (ng/g)

{"molecule": "C[C@H]1O[C@@H](n2cc(F)c(N)nc2=O)[C@H](O)[C@@H]1O", "unitsLabel": "ng/g", "assayValue": 8120}
{"molecule": "O=c1[nH]cc(F)c(=O)[nH]1 [5-FU, 5-fluorouracil, reference compound]", "unitsLabel": "ng/g", "assayValue": 142}
{"molecule": "CCCCCOC(=O)Nc1nc(=O)n([C@@H]2O[C@H](C)[C@@H](O)[C@H]2O)cc1F [Capecitabine, reference compound]", "unitsLabel": "ng/g", "assayValue": 88500}

* * *

runDescription: Tissue concentrations of capecitabine and its metabolites 2 h after oral capecitabine in CES2-modified mice
Format: in vivo, mouse
recordedConditions: female wild-type mice, oral capecitabine 500 mg/kg
This section presents compounds with their documented Liver concentration ratio (metabolite/capecitabine) values.
experimentalEndpoint: Liver concentration ratio (metabolite/capecitabine)

{"compound": "C[C@H]1O[C@@H](n2cc(F)c(N)nc2=O)[C@H](O)[C@@H]1O [5’-DFCR, 5’-deoxy-5-fluorocytidine]", "assayValue": 17.4}
{"compound": "O=c1[nH]cc(F)c(=O)[nH]1 [5-FU, 5-fluorouracil, reference compound]", "assayValue": 0.65}
{"compound": "NCC(F)C(=O)O (stereo not shown) [FBAL]", "assayValue": 48}
{"compound": "C[C@H]1O[C@@H](n2cc(F)c(=O)[nH]c2=O)[C@H](O)[C@@H]1O [5’-DFUR]", "assayValue": 1.60}
